Structures can show the parent of a compound that is named as a salt.
Below, each of the compounds is paired with its reported melting point value.

Answered examples (5):
* Cn1cc(C(C)(C)C)cc(NC(=O)c2cc3cccc(Oc4ccncc4)c3n2C)c1=O [Example 6] | 74 to 76 °C (dec.)
* Cc1ncc(C(C)(C)C)cc1NC(=O)c1cc2cccc(Oc3ccncc3)c2n1C [Example 7] | 52 to 56 °C (dec.)
* Cn1c(C(=O)Nc2cc(C(C)(C)C)c[nH]c2=O)cc2cccc(Oc3ccncc3)c21 [Example 5] | 236 to 238 °C (dec.)
* Cn1c(C(=O)Nc2cc(C(C)(C)C)ccc2S(C)(=O)=O)cc2cccc(Oc3ccncc3)c21 [Example 4] | 158 to 159 °C (dec.)
* COc1cnc(C(C)(C)C)cc1NC(=O)c1cc2cccc(Oc3ccnc(N4CCN(C)CC4)n3)c2n1C (as salt: salt) [Example 2] | 72 to 74 °C (dec.)

Next, consider the following compound.
Q: Which melting point value is on record for Cn1c(C(=O)Nc2cc(C(C)(C)C)ccc2[S+](C)[O-])cc2cccc(Oc3ccncc3)c21 (stereo not drawn) [Example 3] ?
Ans: 88 to 92 °C (dec.)
